Target: CDK6/CyclinD3 (Homo sapiens, UniProt Q00534)
Sequence (Q00534 whole entry, species assumed): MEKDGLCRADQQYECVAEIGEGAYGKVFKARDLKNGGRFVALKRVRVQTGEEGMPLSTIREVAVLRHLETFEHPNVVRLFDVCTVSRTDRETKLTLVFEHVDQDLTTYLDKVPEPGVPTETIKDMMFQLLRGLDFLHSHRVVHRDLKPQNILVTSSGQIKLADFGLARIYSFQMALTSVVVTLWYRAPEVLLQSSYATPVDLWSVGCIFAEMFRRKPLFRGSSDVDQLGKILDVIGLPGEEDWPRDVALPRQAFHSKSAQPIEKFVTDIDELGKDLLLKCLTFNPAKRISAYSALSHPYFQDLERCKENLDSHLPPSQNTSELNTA
Sequence (P30281 whole entry partner, species assumed): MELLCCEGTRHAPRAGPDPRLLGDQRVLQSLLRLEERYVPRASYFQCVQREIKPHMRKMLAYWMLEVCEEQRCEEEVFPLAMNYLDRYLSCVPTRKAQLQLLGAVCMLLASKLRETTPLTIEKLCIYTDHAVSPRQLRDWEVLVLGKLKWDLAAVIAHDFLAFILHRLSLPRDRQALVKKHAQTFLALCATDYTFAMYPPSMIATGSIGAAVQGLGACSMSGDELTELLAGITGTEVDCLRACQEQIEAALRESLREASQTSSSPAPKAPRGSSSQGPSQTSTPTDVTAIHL
Assay: ADP Glo kinase assay, CDK6/CyclinD3
Conditions: Km ATP, read-out: Enzymatic inhibition, Ki, CDK6 D3
Procedure: Test compounds are used in 1:3 serial dilutions for 10 concentrations (from 10-0.0005 μM) in 0.5% DMSO. […] The kinase reactions are run for optimised time period at room temperature and then the reaction is stopped by adding 5 μL of ADP Glo reagent.
For each of the molecules below, state its log10(Ki).
Remember, log10 of Ki, in nM.

stdin: What reported log10(Ki) corresponds to "Cc1cnc(Nc2ccc(N3CCOCC3)nc2)nc1-c1cnc2ccccn12" on CDK6/CyclinD3 (Homo sapiens, UniProt Q00534)?
stdout: 3.20

stdin: What reported log10(Ki) corresponds to "Fc1cnc(Nc2ccc(N3CCOCC3)nc2)nc1-c1cnc2ccccn12" on CDK6/CyclinD3 (Homo sapiens, UniProt Q00534)?
stdout: 3.00

stdin: What reported log10(Ki) corresponds to "CC(=O)N1CCN(c2ccc(Nc3nccc(-c4cnc5ccc(-c6cn[nH]c6)cn45)n3)cn2)CC1" on CDK6/CyclinD3 (Homo sapiens, UniProt Q00534)?
stdout: 2.65

stdin: What reported log10(Ki) corresponds to "Cc1cnc(Nc2ccc(N3CCNCC3)nc2)nc1-c1cnc2ccccn12" on CDK6/CyclinD3 (Homo sapiens, UniProt Q00534)?
stdout: 2.48

stdin: What reported log10(Ki) corresponds to "CN1CCN(c2ccc(Nc3nccc(-c4cnc5ccc(F)cn45)n3)cn2)CC1" on CDK6/CyclinD3 (Homo sapiens, UniProt Q00534)?
stdout: 2.89

stdin: What reported log10(Ki) corresponds to "CC(C)N1CCN(c2ccc(Nc3nccc(-c4cnc5ccc(Br)cn45)n3)cn2)CC1" on CDK6/CyclinD3 (Homo sapiens, UniProt Q00534)?
stdout: 2.47

stdin: What reported log10(Ki) corresponds to "CN1CCN(c2ccc(Nc3nccc(-c4cnc5ccc(Br)cn45)n3)cn2)CC1" on CDK6/CyclinD3 (Homo sapiens, UniProt Q00534)?
stdout: 2.85

stdin: What reported log10(Ki) corresponds to "CN1CCN(c2ccc(Nc3nccc(-c4cnc5ccccn45)n3)cn2)CC1" on CDK6/CyclinD3 (Homo sapiens, UniProt Q00534)?
stdout: 1.63

stdin: What reported log10(Ki) corresponds to "CN(C)c1ccc(Nc2nccc(-c3cnc4ccc(Br)cn34)n2)cn1" on CDK6/CyclinD3 (Homo sapiens, UniProt Q00534)?
stdout: 2.20

stdin: What reported log10(Ki) corresponds to "CC(=O)N1CCN(c2ccc(Nc3ncc(C)c(-c4cnc5ccccn45)n3)cn2)CC1" on CDK6/CyclinD3 (Homo sapiens, UniProt Q00534)?
stdout: 3.00

stdin: What reported log10(Ki) corresponds to "Fc1cnc(Nc2cccnc2)nc1-c1cnc2ccccn12" on CDK6/CyclinD3 (Homo sapiens, UniProt Q00534)?
stdout: 3.46

stdin: What reported log10(Ki) corresponds to "CN1CCN(c2ccc(Nc3nccc(-c4cnc5ccc(Cl)cn45)n3)cn2)CC1" on CDK6/CyclinD3 (Homo sapiens, UniProt Q00534)?
stdout: 2.39

stdin: What reported log10(Ki) corresponds to "Cc1cnc(Nc2ccc(N3CCN(C)CC3)nc2)nc1-c1cnc2ccccn12" on CDK6/CyclinD3 (Homo sapiens, UniProt Q00534)?
stdout: 2.72

stdin: What reported log10(Ki) corresponds to "CC(=O)N1CCN(c2ccc(Nc3ncc(F)c(-c4cnc5ccccn45)n3)cn2)CC1" on CDK6/CyclinD3 (Homo sapiens, UniProt Q00534)?
stdout: 2.65

stdin: What reported log10(Ki) corresponds to "CN1CCN(c2ccc(Nc3nccc(-c4cnc5ccc(-c6cccnc6)cn45)n3)cn2)CC1" on CDK6/CyclinD3 (Homo sapiens, UniProt Q00534)?
stdout: 3.33

stdin: What reported log10(Ki) corresponds to "Cc1nc2ccc(F)cn2c1-c1ccnc(Nc2ccc(N3CCN(C)CC3)nc2)n1" on CDK6/CyclinD3 (Homo sapiens, UniProt Q00534)?
stdout: 1.73

stdin: What reported log10(Ki) corresponds to "CC(C)N1CCN(c2ccc(Nc3nccc(-c4cnc5ccc(Cl)cn45)n3)cn2)CC1" on CDK6/CyclinD3 (Homo sapiens, UniProt Q00534)?
stdout: 2.33

stdin: What reported log10(Ki) corresponds to "CS(=O)(=O)N1CCN(c2ccc(Nc3nccc(-c4cnc5ccc(Br)cn45)n3)cn2)CC1" on CDK6/CyclinD3 (Homo sapiens, UniProt Q00534)?
stdout: 3.32

====

For each of the molecules below, state its remaining activity at 1 µM.
Molecular target: CDK6/CyclinD3 (Homo sapiens, UniProt Q00534)
Test: ADP Glo kinase assay, CDK6/CyclinD3
Format: biochemical
Settings: compound at 1 μM, read-out: Residual enzymatic activity (%) at 1 μM, CDK6 D3
Procedure: Test compounds are used in 1:3 serial dilutions for 10 concentrations (from 10-0.0005 μM) in 0.5% DMSO. […] The kinase reactions are run for optimised time period at room temperature and then the reaction is stopped by adding 5 μL of ADP Glo reagent.

stdin: Which remaining activity at 1 µM value belongs to "CN(C)c1ccc(Nc2nccc(-c3cnc4ccc(C5=CCN(C(=O)OC(C)(C)C)CC5)cn34)n2)cn1" ?
stdout: 78%

stdin: Which remaining activity at 1 µM value belongs to "CCOc1ccc(Nc2ncc(F)c(-c3cnc4ccc(-c5ccccc5)cn34)n2)cn1" ?
stdout: 41%

stdin: Which remaining activity at 1 µM value belongs to "CC(=O)N1CCN(c2ccc(Nc3nccc(-c4cnc5ccccn45)n3)cn2)CC1" ?
stdout: 70%

stdin: Which remaining activity at 1 µM value belongs to "c1ccc(-c2ccc3ncc(-c4ccnc(Nc5ccc(NC6CCOCC6)nc5)n4)n3c2)cc1" ?
stdout: 45%

stdin: Which remaining activity at 1 µM value belongs to "CCN1CCN(Cc2ccc(Nc3nccc(-c4cnc5ccc(Br)cn45)n3)cn2)CC1" ?
stdout: 27%

stdin: Which remaining activity at 1 µM value belongs to "CN(C)c1ccc(Nc2nccc(-c3cnc4ccc(-c5ccccc5)cn34)n2)cn1" ?
stdout: 79%

stdin: Which remaining activity at 1 µM value belongs to "Brc1ccc2ncc(-c3ccnc(Nc4ccc(NC5CCOCC5)nc4)n3)n2c1" ?
stdout: 93%

stdin: Which remaining activity at 1 µM value belongs to "CS(=O)(=O)N1CCN(c2ccc(Nc3nccc(-c4cnc5ccc(-c6ccc(F)nc6)cn45)n3)cn2)CC1" ?
stdout: 96%

stdin: Which remaining activity at 1 µM value belongs to "Fc1cnc(Nc2ccc(N3CCN(CCN4CCOCC4)CC3)nc2)nc1-c1cnc2ccc(-c3ccccc3)cn12" ?
stdout: 23%

stdin: Which remaining activity at 1 µM value belongs to "O=C(c1ccco1)N1CCN(c2ccc(Nc3nccc(-c4cnc5ccc(Br)cn45)n3)cn2)CC1" ?
stdout: 76%

stdin: Which remaining activity at 1 µM value belongs to "c1ccc(-c2ccc3ncc(-c4ccnc(Nc5ccc(N6CCCC6)nc5)n4)n3c2)cc1" ?
stdout: 61%

stdin: Which remaining activity at 1 µM value belongs to "O=C(NC1CC1)c1ccc(Nc2ncc(F)c(-c3cnc4ccc(-c5ccccc5)cn34)n2)cn1" ?
stdout: 46%

stdin: Which remaining activity at 1 µM value belongs to "CS(=O)(=O)N1CCN(c2ccc(Nc3nccc(-c4cnc5ccc(-c6ccco6)cn45)n3)cn2)CC1" ?
stdout: 43%

stdin: Which remaining activity at 1 µM value belongs to "CC(C)N1CCN(c2ccc(Nc3nccc(-c4cnc5ccc(-c6ccsc6)cn45)n3)cn2)CC1" ?
stdout: 24%

stdin: Which remaining activity at 1 µM value belongs to "CCN1CCN(Cc2ccc(Nc3nccc(-c4cnc5ccc(-c6ccccc6)cn45)n3)cn2)CC1" ?
stdout: 59%

stdin: Which remaining activity at 1 µM value belongs to "Brc1ccc2ncc(-c3ccnc(Nc4ccc(N5CCCC5)nc4)n3)n2c1" ?
stdout: 53%

====

For each of the compounds below, state its remaining activity at 1 µM.
biological target: CDK2/CyclinA2 (Homo sapiens); assay: ADP Glo kinase assay, CDK2/CyclinA2; type: biochemical; details: compound at 1 μM, read-out: Residual enzymatic activity (%) at 1 μM, CDK2 A
Lab book: enter the figure in %, no units written.

stdin: Which remaining activity at 1 µM value belongs to Brc1ccc2ncc(-c3ccnc(Nc4ccc(N5CCCC5)nc4)n3)n2c1 [Compound 26] ?
stdout: 27

stdin: Which remaining activity at 1 µM value belongs to CN(C)c1ccc(Nc2nccc(-c3cnc4ccc(Br)cn34)n2)cn1 [Compound 65] ?
stdout: 39

stdin: Which remaining activity at 1 µM value belongs to COc1ccc(-c2ccc3ncc(-c4ccnc(Nc5ccc(N6CCN(C)CC6)nc5)n4)n3c2)cn1 [Compound 43] ?
stdout: 46

stdin: Which remaining activity at 1 µM value belongs to O=C1NCCC12CCN(c1ccc(Nc3nccc(-c4cnc5ccc(-c6ccccc6)cn45)n3)cn1)CC2 [Compound 72] ?
stdout: 64

stdin: Which remaining activity at 1 µM value belongs to CN1CCN(c2ccc(Nc3nccc(-c4cnc5ccc(-c6cnn(C(F)F)c6)cn45)n3)cn2)CC1 [Compound 70] ?
stdout: 55

stdin: Which remaining activity at 1 µM value belongs to CCCNc1ccc(Nc2nccc(-c3cnc4ccc(-c5cnn(C(F)F)c5)cn34)n2)cn1 [Compound 76] ?
stdout: 62

stdin: Which remaining activity at 1 µM value belongs to CN(C)c1ccc(Nc2nccc(-c3cnc4ccc(C5=CCN(C(=O)OC(C)(C)C)CC5)cn34)n2)cn1 [Compound 67] ?
stdout: 93

stdin: Which remaining activity at 1 µM value belongs to CC(C)N1CCN(c2ccc(Nc3nccc(-c4cnc5ccc(-c6ccc(F)nc6)cn45)n3)cn2)CC1 [Compound 55] ?
stdout: 62
